B1: TRIM43 (parent)
chain: YQEIFQQLQRSWVKMDQKSKHLKE

variants of: B1; test: protein stability index of a GFP-peptide fusion (GPS, HEK-293T) (PSI 1-6); higher = more stable; details: c terminus: a fixed tail appended;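 also: lentivirally expressed fusions sorted by FACS into six bins by GFP to DsRed ratio, PSI derived from sequencing read proportions per bin multiplied by bin number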

| Construct Sequence | protein stability index |
| --- | --- |
| YQEAFQQLQRSWVKMDQKSKHLKE [I4A] | 1.98 |
| YQEIFQQLQRSWVKMDQKSIHLKE [K20I] | 1.95 |
| YQEIFWQLQRSWVKMDQKSKHLKE [Q6W] | 2.03 |
| YQEIFQQLQRSWVKMDQKFKHLKE [S19F] | 1.95 |
| YQEIFQQLQRSWVKMDQKSKHLKY [E24Y] | 1.95 |

These entries and their values trace back to the supplement of paper PMC10567573.
